# assay_target: equine FcRn (large alpha subunit p51) / equine beta-2-microglobulin complex, biotinylated (equine) (UniProt P30441)
# measurement_description: SPR (Biacore), pH 6
quantity_kind: Kd (nM)
Numbers only, in nM.

Past entries and their recorded results:
binder="equine IgG4 K311A (antibody, part only; not given: variable domains, not shown: another chain or arm of the molecule) constant: ASTTAPKVFPLASHSAATSGSTVALGCLVSSYFPEPVTVSWNSGALTSGVHTFPSVLQSSGLYSLSSMVTVPASSLKSQTYICNVAHPASSTKVDKKIVIKECNGGCPAECLQVGPSVFIFPPKPKDVLMISRTPTVTCVVVDVGHDFPDVQFNWYVDGVETHTATTEPKQEQFNSTYRVVSVLPIQHADWLSGKEFKCKVNNKALPAPVERTISKPTGQPREPQVYVLAPHRDELSKNKVSVTCLVKDFYPTDIDIEWKSNGQPEPETKYSTTPAQLDSDGSYFLYSKLTVETNRWQQGTTFTCAVMHEALHNHYTEKSVSKSPGK" value_units=nM test_result=24.8
binder="equine IgG1 Q311Y (antibody, part only; not given: Variable domains, not shown: another chain or arm of the molecule) constant: ASTTAPKVFALAPGCGTTSDSTVALGCLVSGYFPEPVKVSWNSGSLTSGVHTFPSVLQSSGFYSLSSMVTVPASTWTSETYICNVVHAASNFKVDKRIEPIPDNHQKVCDMSKCPKCPAPELLGGPSVFIFPPNPKDTLMITRTPEVTCVVVDVSQENPDVKFNWYMDGVEVRTATTRPKEEQFNSTYRVVSVLRIQHYDWLSGKEFKCKVNNQALPQPIERTITKTKGRSQEPQVYVLAPHPDELSKSKVSVTCLVKDFYPPEINIEWQSNGQPELETKYSTTQAQQDSDGSYFLYSKLSVDRNRWQQGTTFTCGVMHEALHNHYTQKNVSKNPGK" value_units=nM test_result=21.2
binder="equine IgG4 K311G (antibody, part only; not given: variable domains, not shown: another chain or arm of the molecule; small tags and cut ends) constant: ASTTAPKVFPLASHSAATSGSTVALGCLVSSYFPEPVTVSWNSGALTSGVHTFPSVLQSSGLYSLSSMVTVPASSLKSQTYICNVAHPASSTKVDKKIVIKECNGGCPAECLQVGPSVFIFPPKPKDVLMISRTPTVTCVVVDVGHDFPDVQFNWYVDGVETHTATTEPKQEQFNSTYRVVSVLPIQHGDWLSGKEFKCKVNNKALPAPVERTISKPTGQPREPQVYVLAPHRDELSKNKVSVTCLVKDFYPTDIDIEWKSNGQPEPETKYSTTPAQLDSDGSYFLYSKLTVETNRWQQGTTFTCAVMHEALHNHYTEKSVSKSPGK" value_units=nM test_result=51.2
binder="equine IgG4 N434S (antibody, part only; not given: variable domains, not shown: another chain or arm of the molecule) constant: ASTTAPKVFPLASHSAATSGSTVALGCLVSSYFPEPVTVSWNSGALTSGVHTFPSVLQSSGLYSLSSMVTVPASSLKSQTYICNVAHPASSTKVDKKIVIKECNGGCPAECLQVGPSVFIFPPKPKDVLMISRTPTVTCVVVDVGHDFPDVQFNWYVDGVETHTATTEPKQEQFNSTYRVVSVLPIQHKDWLSGKEFKCKVNNKALPAPVERTISKPTGQPREPQVYVLAPHRDELSKNKVSVTCLVKDFYPTDIDIEWKSNGQPEPETKYSTTPAQLDSDGSYFLYSKLTVETNRWQQGTTFTCAVMHEALHSHYTEKSVSKSPGK" value_units=nM test_result=23.8
binder="equine IgG4 N434E (antibody, part only; not given: variable domains, not shown: another chain or arm of the molecule) constant: ASTTAPKVFPLASHSAATSGSTVALGCLVSSYFPEPVTVSWNSGALTSGVHTFPSVLQSSGLYSLSSMVTVPASSLKSQTYICNVAHPASSTKVDKKIVIKECNGGCPAECLQVGPSVFIFPPKPKDVLMISRTPTVTCVVVDVGHDFPDVQFNWYVDGVETHTATTEPKQEQFNSTYRVVSVLPIQHKDWLSGKEFKCKVNNKALPAPVERTISKPTGQPREPQVYVLAPHRDELSKNKVSVTCLVKDFYPTDIDIEWKSNGQPEPETKYSTTPAQLDSDGSYFLYSKLTVETNRWQQGTTFTCAVMHEALHEHYTEKSVSKSPGK" value_units=nM test_result=71.3
binder="equine IgG4 A426G (antibody, part only; not given: variable domains, not shown: another chain or arm of the molecule) constant: ASTTAPKVFPLASHSAATSGSTVALGCLVSSYFPEPVTVSWNSGALTSGVHTFPSVLQSSGLYSLSSMVTVPASSLKSQTYICNVAHPASSTKVDKKIVIKECNGGCPAECLQVGPSVFIFPPKPKDVLMISRTPTVTCVVVDVGHDFPDVQFNWYVDGVETHTATTEPKQEQFNSTYRVVSVLPIQHKDWLSGKEFKCKVNNKALPAPVERTISKPTGQPREPQVYVLAPHRDELSKNKVSVTCLVKDFYPTDIDIEWKSNGQPEPETKYSTTPAQLDSDGSYFLYSKLTVETNRWQQGTTFTCGVMHEALHNHYTEKSVSKSPGK" value_units=nM test_result=33.3

I have 2 binders here; please give me Kd for each one.
1. equine IgG1 WT (antibody, part only; not given: Variable domains, not shown: another chain or arm of the molecule) constant: ASTTAPKVFALAPGCGTTSDSTVALGCLVSGYFPEPVKVSWNSGSLTSGVHTFPSVLQSSGFYSLSSMVTVPASTWTSETYICNVVHAASNFKVDKRIEPIPDNHQKVCDMSKCPKCPAPELLGGPSVFIFPPNPKDTLMITRTPEVTCVVVDVSQENPDVKFNWYMDGVEVRTATTRPKEEQFNSTYRVVSVLRIQHQDWLSGKEFKCKVNNQALPQPIERTITKTKGRSQEPQVYVLAPHPDELSKSKVSVTCLVKDFYPPEINIEWQSNGQPELETKYSTTQAQQDSDGSYFLYSKLSVDRNRWQQGTTFTCGVMHEALHNHYTQKNVSKNPGK
2. equine IgG4 K311W (antibody, part only; not given: variable domains, not shown: another chain or arm of the molecule) constant: ASTTAPKVFPLASHSAATSGSTVALGCLVSSYFPEPVTVSWNSGALTSGVHTFPSVLQSSGLYSLSSMVTVPASSLKSQTYICNVAHPASSTKVDKKIVIKECNGGCPAECLQVGPSVFIFPPKPKDVLMISRTPTVTCVVVDVGHDFPDVQFNWYVDGVETHTATTEPKQEQFNSTYRVVSVLPIQHWDWLSGKEFKCKVNNKALPAPVERTISKPTGQPREPQVYVLAPHRDELSKNKVSVTCLVKDFYPTDIDIEWKSNGQPEPETKYSTTPAQLDSDGSYFLYSKLTVETNRWQQGTTFTCAVMHEALHNHYTEKSVSKSPGK

Result:
22.5
27.1

Cited source: patent US20260070987A1
